Values from ChEMBL document CHEMBL3351928

Assay: Half life in dog at 0.5 mg/kg, iv
Type: ADME, organism-based, Canis lupus familiaris
Parameters: dose 0.5 mg/kg, route intravenous
Conditions: in vivo
experimental.endpoint: half-life
Give me the value, and tack the unit on after it.

### Prompt Need half-life, item "CC(=O)N1CCC(c2nccnc2Oc2ccc(C(=O)c3nc4ccccc4[nH]3)cc2)CC1"
### Response 6.89 h

### Prompt Need half-life, item "CC(=O)N1CCC(c2cccnc2Oc2ccc(C(=O)c3nc4ccccc4[nH]3)cc2)CC1"
### Response 7.41 h

====

Assay: AUC in non-human primates at 0.5 mg/kg, po
Type: ADME, organism-based
Set-up: dose 0.5 mg/kg, route oral
Settings: monkey, plasma
experimental.endpoint: AUC (nM·h)
# output: bare number, implied unit nM·h

### Prompt Need AUC, item "CC(=O)N1CCC(c2nccnc2Oc2ccc(C(=O)c3nc4ccccc4[nH]3)cc2)CC1"
### Response 2400
